Biological target: T1, hIL-18BP-hFc (human, UniProt O95998 31-194, limits assumed)
T1 sequence (looked up): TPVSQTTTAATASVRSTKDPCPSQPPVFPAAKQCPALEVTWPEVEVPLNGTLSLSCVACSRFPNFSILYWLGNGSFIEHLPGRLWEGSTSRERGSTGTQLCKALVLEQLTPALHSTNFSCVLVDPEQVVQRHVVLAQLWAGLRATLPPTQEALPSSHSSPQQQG
Assay: cell-based or functional assay
Reported EC50 (nM) in the Presence of 1 µg/mL hIL-18BP-hFc, PBMC assay (hIFNγ release) values are given for each entry in this list.

{"columns": ["Binder", "Experimental value"],
 "data": [
  ["IL-18 variant polypeptide M32 (ligand) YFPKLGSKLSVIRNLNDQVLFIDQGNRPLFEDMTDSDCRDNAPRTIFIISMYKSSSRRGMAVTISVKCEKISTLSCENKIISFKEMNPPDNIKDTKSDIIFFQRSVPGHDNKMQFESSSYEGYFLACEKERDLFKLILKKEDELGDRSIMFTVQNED", "0.1 nM"]
]}

The measured EC50 (nM) in the Presence of 1 µg/mL hIL-18BP-hFc, PBMC assay (hIFNγ release) associated with IL-18 variant polypeptide M15 (ligand) YFPKLRSKLSVIRNLNDQVLFIDQGNRPLFEDMTDSDCRDNAPRTIFIISMYKSSYTRGMAVTISVKCEKISTLSCENKIISFKEMNPPDGIKDTKSDIIFFQRSVPGHDNKMQFESSSYEGYFLACEKERDLFKLILKKEDELGDRSIMFTVQNED reads 0.036 nM

Source of measurements: patent US20260092093A1
